Source of measurements: paper PMC9624299

System: GL261 MGMT+ cells
Assay: Cell viability assay, GL261 MGMT+
Format: cell-based, mouse
Conditions: Mus musculus, GL261, 168 h
observation-type: IC50

**Q:** Provide measured IC50 value, entry: Cn1nnc2c(C(N)=O)ncn2c1=O [TMZ, temozolomide]
**A:** > 1 mM

====

System: RKO cells
Assay: Cell viability assay, RKO colon cancer
Format: cell-based
Details: Homo sapiens
observation-type: IC50

**Q:** Provide measured IC50 value, entry: Cn1nnc2c(C(N)=O)ncn2c1=O [TMZ, temozolomide]
**A:** > 1000 µM

====

Test system: U87 cells
Assay: Cell viability assay
Format: cell-based, human
Conditions: U87; 7 days
observation-type: cytotoxicity (in words)

INSERT INTO measurements (smiles_str, observation_type, measurement) VALUES
  ('CC(C)(C)Cn1nnc2c(C(N)=O)ncn2c1=O', 'cytotoxicity (in words)', 'inactive'),
  ('CC(C)n1nnc2c(C(N)=O)ncn2c1=O', 'cytotoxicity (in words)', 'inactive'),
  ('CC(C)(C)n1nnc2c(C(N)=O)ncn2c1=O', 'cytotoxicity (in words)', 'inactive');

====

Assay: Hydrolytic stability studies
Format: physicochemical
Details: PBS, pH 7.4
observation-type: half-life at 100 μM

**Q:** Provide measured half-life at 100 μM value, entry: Cn1nnc2c(C(N)=O)ncn2c1=O [TMZ, temozolomide]
**A:** ~90 min

====

System: T98G cells
Assay: Cell viability assay
Assay type: cell-based, human
Conditions: T98G; 7 days
observation-type: cytotoxicity (in words)

INSERT INTO measurements (compound, measurement) VALUES
  ('CC(C)(C)Cn1nnc2c(C(N)=O)ncn2c1=O [Compound 6]', 'inactive'),
  ('CC(C)n1nnc2c(C(N)=O)ncn2c1=O [Compound 4]', 'inactive'),
  ('CC(C)(C)n1nnc2c(C(N)=O)ncn2c1=O [Compound 5]', 'inactive');
